Item-by-item account of furin cleavage Z-score
- Measurement target: furin, P09958;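 also: purified furin at 1:10 enzyme:substrate in 50 mM HEPES pH 7.5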
- Sequence (P09958 whole entry): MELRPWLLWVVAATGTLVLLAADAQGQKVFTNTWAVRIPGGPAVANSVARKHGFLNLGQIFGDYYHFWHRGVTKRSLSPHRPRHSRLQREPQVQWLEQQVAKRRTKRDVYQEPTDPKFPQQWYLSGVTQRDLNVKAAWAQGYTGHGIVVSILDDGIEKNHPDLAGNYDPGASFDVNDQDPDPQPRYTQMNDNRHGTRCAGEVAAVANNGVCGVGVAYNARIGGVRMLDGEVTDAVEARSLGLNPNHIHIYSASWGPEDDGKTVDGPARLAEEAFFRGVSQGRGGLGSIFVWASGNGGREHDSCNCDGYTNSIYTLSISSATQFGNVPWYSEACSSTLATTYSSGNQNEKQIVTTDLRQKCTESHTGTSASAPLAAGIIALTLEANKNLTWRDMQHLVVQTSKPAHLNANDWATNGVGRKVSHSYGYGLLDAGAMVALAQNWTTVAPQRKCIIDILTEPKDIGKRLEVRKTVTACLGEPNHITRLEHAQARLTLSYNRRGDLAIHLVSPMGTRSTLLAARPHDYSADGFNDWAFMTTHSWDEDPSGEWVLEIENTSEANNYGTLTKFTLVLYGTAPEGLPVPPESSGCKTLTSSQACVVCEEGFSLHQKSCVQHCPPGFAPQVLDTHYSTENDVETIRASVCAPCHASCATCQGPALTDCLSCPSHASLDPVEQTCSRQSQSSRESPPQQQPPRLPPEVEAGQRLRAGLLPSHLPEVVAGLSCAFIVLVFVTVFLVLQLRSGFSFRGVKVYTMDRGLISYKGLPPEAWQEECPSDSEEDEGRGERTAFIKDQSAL
- Procedure details: furin cleavage Z-score vs untreated control; higher = more cleavage, active = 3.5 or more, inactive = 1 or less, 8 variable residues between constant flanks
- Run conditions: 15 min
The list shows a part of the results. No count for the full screen is at hand.
// keep it numeric: no unit symbol after the value

Use these answered entries as a reference point.
# Sequence input, furin cleavage Z-score
rows = [
    ("CARTDRCRRGAGNASASA [FS-1483]", 8.52),
    ("CARTGRQVLGAGNASASA [FS-3104]", -0.821),
    ("CATREAFRRGAGNASASA [FS-883]", -0.878),
]

Exercise: Give the reported value of furin cleavage Z-score for this record: CARFKRKLPKAGNASASA [FS-1948]
Key: 1.94

Exercise: Give the reported furin cleavage Z-score for this sequence. CATTKRDAGKAGNASASA [FS-2474]
Key: -0.387

Exercise: State its furin cleavage Z-score for this sequence: CAEVVTSTWCAGNASASA [HC2260]
Key: 2.75

Exercise: Look up furin cleavage Z-score of CARICRDIPKAGNASASA [FS-2029] and report it.
Key: 5.68
